Each recorded value in this set is attributed to the supplement of paper PMC13380429.

# System: U2OS
# assay.text: cell viability relative to DMSO; higher = less toxic
# condition.info: 72 h; 10000 nM
quantity: cell viability (%)

compound="CCOc1ccc(C(=O)OCCN(CC)CC)cc1 [parethoxycaine]" quantity="cell viability" quantitative_readout=98.8
compound="CC(c1cc2ccccc2s1)N(O)C(N)=O (centres undefined) [zileuton]" quantity="cell viability" quantitative_readout=96.4
compound="O=C(O)CCNc1cc(N2CCc3ccccc3CC2)nc(-c2ccccn2)n1 [GSK-J1]" quantity="cell viability" quantitative_readout=102
compound="O=[N+]([O-])/N=C1\\NCCN1Cc1ccc(Cl)nc1 [imidacloprid]" quantity="cell viability" quantitative_readout=94.4
compound=CCc1cc(-c2[nH]nc(C)c2-c2ccc3c(c2)OCCO3)c(O)cc1O quantity="cell viability" quantitative_readout=65.6
compound="Cc1ncc(-c2csc(N=C(N)N)n2)[nH]1 [zaltidine]" quantity="cell viability" quantitative_readout=106
compound="C=C[C@]1(C)C[C@@H](OC(=O)CSC(C)(C)CNC(=O)[C@H](N)C(C)C)[C@]2(C)[C@H](C)CC[C@]3(CCC(=O)[C@H]32)[C@@H](C)[C@@H]1O [valnemulin]" quantity="cell viability" quantitative_readout=79.5
compound="CN(C)CCC=C1c2ccccc2CCc2ccccc21 [amitriptyline]" quantity="cell viability" quantitative_readout=92.3
compound="CNC(=O)[C@H](Cc1ccccc1)NC(=O)[C@H](CC(C)C)[C@H](CSc1cccs1)C(=O)NO [batimastat]" quantity="cell viability" quantitative_readout=90.1
compound=CN(C)CCCCSC(=N)N quantity="cell viability" quantitative_readout=97.8
compound="CC(C)(CO)Cc1cc(C(C)(C)C)c(O)c(C(C)(C)C)c1 [CGP-7930]" quantity="cell viability" quantitative_readout=104
compound=CCCc1c(OCCCOc2ccc(OCC(=O)O)cc2)ccc(C(C)=O)c1O quantity="cell viability" quantitative_readout=102
compound="Cc1nc(NC(=O)N2CCC[C@H]2C(N)=O)sc1-c1csc(C(C)(C)C)n1 [A66]" quantity="cell viability" quantitative_readout=88.7
compound="Oc1ccc(CC2NCCc3cc(O)c(O)cc32)cc1 (centres undefined) [higenamine]" quantity="cell viability" quantitative_readout=36.6
compound="Cc1ccc(Oc2ccccc2-c2csc(N=C3NCCCN3)n2)c(C)c1 [abafungin]" quantity="cell viability" quantitative_readout=91.2
compound="COc1ccccc1N1CCN(CCn2c(=O)[nH]c3c([nH]c4ccccc43)c2=O)CC1 [3-MPPI]" quantity="cell viability" quantitative_readout=101
compound="CCCC(O)C(CC)CO (centres undefined) [2-ethyl-1,3-hexanediol]" quantity="cell viability" quantitative_readout=102
compound="COc1ccc(-c2coc3cc(O)cc(O)c3c2=O)cc1 [4-methylgenistein]" quantity="cell viability" quantitative_readout=97.1
compound=Cc1ccc(-c2ncc[nH]2)cc1NC(=O)c1ccc(OCc2ccccn2)cc1 quantity="cell viability" quantitative_readout=99.2
compound=CCC[C@H](N[C@H]1CCc2cc(F)cc(F)c2C1)C(=O)Nc1cn(C(C)(C)CNCC(C)(C)C)cn1 quantity="cell viability" quantitative_readout=87.9
compound="Cc1c(F)cccc1NC(=O)Nc1ccc(Cl)c(S(=O)(=O)[C@H]2CCCNC2)c1O [danirixin]" quantity="cell viability" quantitative_readout=98.8
compound="COc1cc2c(Nc3ccc(Cl)c(Cl)c3F)ncnc2cc1OC[C@@H]1C[C@@H]2CN(C)C[C@@H]2C1 [XL647]" quantity="cell viability" quantitative_readout=-0.3
compound="CCC/C=C1\\OC(=O)C2=C1CCC=C2 [ligustilide]" quantity="cell viability" quantitative_readout=94.7
compound="C[C@]12CCC(=O)C=C1C=C[C@@H]1[C@@H]2CC[C@@]2(C)[C@H]1CC[C@@]2(O)CCC(=O)O [potassium-canrenoate]" quantity="cell viability" quantitative_readout=98.9
compound="O=c1[nH]nc2c3c(cccc13)N=C(CN1Cc3ccccc3C1)N2 [E7449]" quantity="cell viability" quantitative_readout=87.3
compound="O=[N+]([O-])c1nccn1CC(O)CN1CCCCC1 (centres undefined) [pimonidazole]" quantity="cell viability" quantitative_readout=106
compound="C=C[C@@](C)(/C=C/c1ccc(O)cc1)CCC=C(C)C [bakuchiol]" quantity="cell viability" quantitative_readout=97.6
compound="CC(=O)O[C@]1(C(C)=O)CC[C@H]2[C@@H]3CCC4=CC(=O)CCC4=C3[C@@H](c3ccc(N(C)C)cc3)C[C@@]21C [Ulipristal acetate]" quantity="cell viability" quantitative_readout=94.9
compound="CC(CN(C)C)CN1c2ccccc2CCc2ccccc21 (centres undefined) [trimipramine]" quantity="cell viability" quantitative_readout=97.1

###

# Test system: U2OS
# assay.text: cell viability relative to DMSO; higher = less toxic
# condition.info: 72 h; 1 nM
Counter-ions that a name gives are not always drawn.
Measured cell viability values are reported for all entries that follow.
quantity: cell viability (%)

compound=CN(C)CCC=C1c2ccccc2CCc2ccccc21 target_or_system=U2OS quantitative_readout=102
compound=Oc1ccc2c3c1O[C@H]1c4[nH]c5c(c4C[C@@]4(O)[C@@H](C2)N(CC2CC2)CC[C@]314)C[C@@]1(O)[C@H]2Cc3ccc(O)c4c3[C@@]1(CCN2CC1CC1)[C@H]5O4 target_or_system=U2OS quantitative_readout=103
compound="Cc1ccccc1N(C)C(=O)c1ccc([S+]([O-])c2nccs2)c([N+](=O)[O-])c1 (stereo unspecified)" target_or_system=U2OS quantitative_readout=98.5
compound=CC(C)C[C@@H](NC(=O)[C@H](C)NC(=O)CNC(=O)[C@@H](NC=O)C(C)C)C(=O)N[C@@H](C)C(=O)N[C@@H](C(=O)N[C@H](C(=O)N[C@@H](C(=O)N[C@@H](Cc1c[nH]c2ccccc12)C(=O)N[C@H](CC(C)C)C(=O)N[C@@H](Cc1c[nH]c2ccccc12)C(=O)N[C@H](CC(C)C)C(=O)N[C@@H](Cc1c[nH]c2ccccc12)C(=O)N[C@H](CC(C)C)C(=O)N[C@@H](Cc1c[nH]c2ccccc12)C(=O)NCCO)C(C)C)C(C)C)C(C)C target_or_system=U2OS quantitative_readout=97.5
compound=CN(C)CCCCSC(=N)N target_or_system=U2OS quantitative_readout=94
compound="CCCC(O)C(CC)CO (stereo unspecified)" target_or_system=U2OS quantitative_readout=102
compound=CC(C)(F)C[C@H](N[C@@H](c1ccc(-c2ccc(S(C)(=O)=O)cc2)cc1)C(F)(F)F)C(=O)NC1(C#N)CC1 target_or_system=U2OS quantitative_readout=103
compound=C=C[C@]1(C)C[C@@H](OC(=O)CSC(C)(C)CNC(=O)[C@H](N)C(C)C)[C@]2(C)[C@H](C)CC[C@]3(CCC(=O)[C@H]32)[C@@H](C)[C@@H]1O target_or_system=U2OS quantitative_readout=97.4
compound="O=C(NCC1CCCCN1)c1cc(OCC(F)(F)F)ccc1OCC(F)(F)F (stereo unspecified) [flecainide]" target_or_system=U2OS quantitative_readout=98.8
compound=CC(C)OC(=O)N1CCC(Oc2ncnc3c2cnn3-c2ccc(S(C)(=O)=O)cc2F)CC1 target_or_system=U2OS quantitative_readout=99.4
compound="O=[N+]([O-])O[C@@H]1CO[C@H]2[C@@H]1OC[C@@H]2O [isosorbide-mononitrate]" target_or_system=U2OS quantitative_readout=96.5
compound=CCC1=C[C@@H]2CN3CCc4c([nH]c5ccccc45)[C@@](C(=O)OC)(C2)[C@@H]13 target_or_system=U2OS quantitative_readout=92.3
compound=Cc1ccc(CNc2ncnc3ccc(-c4ccc(CO)o4)cc23)o1 target_or_system=U2OS quantitative_readout=102
compound=CC(C)(C)Sc1c(CC(C)(C)C(=O)O)n(Cc2ccc(Cl)cc2)c2ccc(OCc3ccc4ccccc4n3)cc12 target_or_system=U2OS quantitative_readout=102
compound="C=CCN1CC[C@]23c4c5ccc(O)c4O[C@H]2C(=O)CC[C@@]3(O)[C@H]1C5 [NALOXONE HYDROCHLORIDE]" target_or_system=U2OS quantitative_readout=103
compound=Cn1c(=O)cnn(CCCCN2CCN(c3ncccn3)CC2)c1=O target_or_system=U2OS quantitative_readout=103
compound="NP(N)(=O)NC(=O)c1ccc(F)cc1 [flurofamide]" target_or_system=U2OS quantitative_readout=100
compound=CCCCn1ccc(N2CCC(c3ccccc3)CC2)c(Cl)c1=O target_or_system=U2OS quantitative_readout=100
compound="C[C@H](N)Cc1c[nH]cn1 [alpha-methylhistamine-dihydrobromide-(S)-(+)]" target_or_system=U2OS quantitative_readout=98.9
compound=C[C@@H](c1ccc2nccn2c1)n1nnc2ncc(-c3cnn(C)c3)nc21 target_or_system=U2OS quantitative_readout=101
compound=CC(C)c1ccc(C(=O)c2cccs2)c(SCCCCCCCCN(C)C)n1 target_or_system=U2OS quantitative_readout=99.4
compound=CCCS(=O)(=O)Nc1ccc(F)c(C(=O)c2c[nH]c3ncc(Cl)cc23)c1F target_or_system=U2OS quantitative_readout=102
compound=CC(C)(CO)Cc1cc(C(C)(C)C)c(O)c(C(C)(C)C)c1 target_or_system=U2OS quantitative_readout=98.2
compound=CC(=O)CC/C=C(\C)CC/C=C(\C)CC/C=C(\C)CCC=C(C)C target_or_system=U2OS quantitative_readout=102
compound=N[C@@H](CCC(=O)N[C@@H](CS)C(=O)NCC(=O)O)C(=O)O target_or_system=U2OS quantitative_readout=95.3
compound="CN(CCOP(=O)(O)O)C(=N)N [creatinol-phosphate]" target_or_system=U2OS quantitative_readout=92.5
